- EXPERIMENTAL_SYSTEM: Fibroblast growth factor receptor 3 (Homo sapiens) (UniProt P22607);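 further: each value is a mean percent inhibition of FGFR3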
- Sequence (P22607 23-806 limits assumed): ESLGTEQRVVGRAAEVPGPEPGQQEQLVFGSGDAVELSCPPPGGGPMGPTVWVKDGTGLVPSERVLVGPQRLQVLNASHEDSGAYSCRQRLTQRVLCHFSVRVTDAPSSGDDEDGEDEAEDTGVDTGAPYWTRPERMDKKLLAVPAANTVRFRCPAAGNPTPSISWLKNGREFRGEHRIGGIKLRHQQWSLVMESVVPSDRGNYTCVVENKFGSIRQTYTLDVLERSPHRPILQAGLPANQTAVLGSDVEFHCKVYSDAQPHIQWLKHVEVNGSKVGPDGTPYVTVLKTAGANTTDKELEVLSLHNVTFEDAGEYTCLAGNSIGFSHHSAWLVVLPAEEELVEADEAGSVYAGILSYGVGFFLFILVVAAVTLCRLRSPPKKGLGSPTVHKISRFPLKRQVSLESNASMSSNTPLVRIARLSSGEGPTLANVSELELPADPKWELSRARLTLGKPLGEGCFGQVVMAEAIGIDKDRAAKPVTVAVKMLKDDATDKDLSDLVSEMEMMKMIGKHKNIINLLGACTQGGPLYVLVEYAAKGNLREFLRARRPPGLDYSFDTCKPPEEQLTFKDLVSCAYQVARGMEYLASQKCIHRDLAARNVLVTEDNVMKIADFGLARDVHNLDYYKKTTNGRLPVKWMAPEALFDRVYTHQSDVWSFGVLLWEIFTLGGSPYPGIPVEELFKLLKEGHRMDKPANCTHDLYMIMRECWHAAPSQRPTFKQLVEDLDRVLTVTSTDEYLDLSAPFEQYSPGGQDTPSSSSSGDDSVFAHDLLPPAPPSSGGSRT
- PARTICULARS: at 0.1 µM
Could you please classify the records by inhibition using these ranges: lower band: < 5%; central band: ≥ 5% and < 6%; upper band: ≥ 6%

Field: example entries. Status: answers known.
- COMPOUND_STRUCTURE_STRING: "Fc1ccc(-c2nn3ncccc3c2-c2ccnc(Nc3ccc4c(c3)OCCO4)n2)cc1"
  GROUP_LABEL: "lower band"
- COMPOUND_STRUCTURE_STRING: "COC(=O)Nc1nc2ccc(S(=O)(=O)c3ccc(NC(=O)Nc4cc(C(F)(F)F)ccc4F)cc3)cc2[nH]1"
  GROUP_LABEL: "lower band"
- COMPOUND_STRUCTURE_STRING: "CNC(=O)c1cccc(C#Cc2cncnc2Nc2ccc(OCc3cccc(F)c3)c(Cl)c2)c1"
  GROUP_LABEL: "lower band"
- COMPOUND_STRUCTURE_STRING: "COc1ccc(-c2nn3ncccc3c2-c2ccnc(Nc3ccc4c(c3)OCCO4)n2)cc1"
  GROUP_LABEL: "lower band"
- COMPOUND_STRUCTURE_STRING: "Fc1cccc(COc2ccc(Nc3ncnc4sc(-c5ccco5)cc34)cc2Cl)c1"
  GROUP_LABEL: "central band"

Please find the next molecule below.
## Input Looking at COc1cc(N2CCN(C(C)C)CC2)ccc1Nc1nc(Nc2ccc(F)cc2C(N)=O)c2cc[nH]c2n1 , which class would you pick?
## Output upper band

----------
- EXPERIMENTAL_SYSTEM: 3-phosphoinositide-dependent protein kinase 1 (Homo sapiens) (UniProt O15530);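 further: values are mean inhibition of PDK1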
- Sequence (O15530 whole entry): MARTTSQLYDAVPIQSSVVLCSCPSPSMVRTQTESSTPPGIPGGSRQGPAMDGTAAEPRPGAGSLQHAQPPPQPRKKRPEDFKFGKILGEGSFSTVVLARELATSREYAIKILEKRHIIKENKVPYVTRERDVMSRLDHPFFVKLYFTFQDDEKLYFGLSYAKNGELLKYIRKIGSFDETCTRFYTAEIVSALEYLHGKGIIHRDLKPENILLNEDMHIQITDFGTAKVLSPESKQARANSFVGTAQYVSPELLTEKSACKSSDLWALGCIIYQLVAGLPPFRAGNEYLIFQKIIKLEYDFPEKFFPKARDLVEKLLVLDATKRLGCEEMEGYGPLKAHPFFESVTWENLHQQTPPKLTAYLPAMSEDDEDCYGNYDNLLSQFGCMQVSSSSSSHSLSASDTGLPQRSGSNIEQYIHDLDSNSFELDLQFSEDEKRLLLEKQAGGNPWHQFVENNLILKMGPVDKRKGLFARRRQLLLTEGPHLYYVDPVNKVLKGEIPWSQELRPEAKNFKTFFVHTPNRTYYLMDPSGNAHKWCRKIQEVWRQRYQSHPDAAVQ
- PARTICULARS: at 0.1 µM
Threshold check on inhibition: at or above 0.9% gives 1, strictly below gives 0.

- COMPOUND_STRUCTURE_STRING: "CCn1c(-c2nonc2N)nc2c(C#CC(C)(C)O)nc(OC[C@H](N)c3ccccc3)cc21"
  GROUP_LABEL: 1

Please find the next compound below.
## Input Evaluate CCn1c(-c2nonc2N)nc2cnc(Oc3cccc(NC(=O)c4ccc(N(C)C)cc4)c3)cc21 : inhibition at minimum 0.9%?
## Output 1

----------
- EXPERIMENTAL_SYSTEM: Proto-oncogene tyrosine-protein kinase receptor Ret (Homo sapiens) (UniProt P07949);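 further: reported figure is the mean of RET inhibition measurements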
- Sequence (P07949 whole entry): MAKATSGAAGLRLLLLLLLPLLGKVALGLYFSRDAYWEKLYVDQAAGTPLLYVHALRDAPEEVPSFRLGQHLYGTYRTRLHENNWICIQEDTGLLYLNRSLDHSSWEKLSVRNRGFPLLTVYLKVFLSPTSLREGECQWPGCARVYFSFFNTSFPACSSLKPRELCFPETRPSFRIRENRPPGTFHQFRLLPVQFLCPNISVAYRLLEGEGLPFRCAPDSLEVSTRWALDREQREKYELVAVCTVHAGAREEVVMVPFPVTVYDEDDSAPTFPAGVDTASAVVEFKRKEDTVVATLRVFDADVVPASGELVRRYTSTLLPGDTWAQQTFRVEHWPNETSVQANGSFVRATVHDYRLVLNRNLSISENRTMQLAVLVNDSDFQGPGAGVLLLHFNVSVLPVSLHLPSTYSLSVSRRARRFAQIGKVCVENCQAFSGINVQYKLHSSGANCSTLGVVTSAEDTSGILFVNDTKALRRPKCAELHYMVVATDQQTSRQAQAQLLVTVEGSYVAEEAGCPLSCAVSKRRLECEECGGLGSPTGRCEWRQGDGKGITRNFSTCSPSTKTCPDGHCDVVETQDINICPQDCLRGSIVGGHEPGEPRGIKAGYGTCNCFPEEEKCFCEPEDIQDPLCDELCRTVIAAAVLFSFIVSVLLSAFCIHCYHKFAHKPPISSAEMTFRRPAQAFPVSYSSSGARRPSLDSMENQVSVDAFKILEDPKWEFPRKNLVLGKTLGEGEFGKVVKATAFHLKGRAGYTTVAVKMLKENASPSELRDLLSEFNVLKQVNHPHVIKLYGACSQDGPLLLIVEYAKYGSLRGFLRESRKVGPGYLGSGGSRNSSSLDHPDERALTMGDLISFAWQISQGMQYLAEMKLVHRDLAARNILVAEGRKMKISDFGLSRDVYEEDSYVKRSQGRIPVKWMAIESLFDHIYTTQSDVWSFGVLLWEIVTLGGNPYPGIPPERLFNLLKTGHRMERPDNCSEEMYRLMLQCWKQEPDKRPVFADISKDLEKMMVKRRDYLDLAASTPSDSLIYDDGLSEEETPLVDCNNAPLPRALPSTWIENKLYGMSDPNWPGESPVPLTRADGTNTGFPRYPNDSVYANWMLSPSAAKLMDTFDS
- PARTICULARS: at 0.1 µM
PARAMETER: inhibition

Some entries whose results are on file:
- COMPOUND_STRUCTURE_STRING: "CCNC(=O)O[C@H]1CN[C@H](C#Cc2cc3ncnc(Nc4ccc(OCc5cccc(F)c5)c(Cl)c4)c3s2)C1"
  EXPERIMENTAL_SYSTEM: "Proto-oncogene tyrosine-protein kinase receptor Ret (Homo sapiens) (UniProt P07949)"
  RESULT: "2%"
- COMPOUND_STRUCTURE_STRING: "O=S(=O)(CCNCc1ccc(-c2ccc3ncnc(Nc4ccc(OCc5cccc(F)c5)c(Cl)c4)c3c2)o1)c1ccccc1"
  EXPERIMENTAL_SYSTEM: "Proto-oncogene tyrosine-protein kinase receptor Ret (Homo sapiens) (UniProt P07949)"
  RESULT: "6.34%"
- COMPOUND_STRUCTURE_STRING: "COc1cccc(-n2ncc3c(N/N=C/c4ccc(F)cc4)ncnc32)c1"
  EXPERIMENTAL_SYSTEM: "Proto-oncogene tyrosine-protein kinase receptor Ret (Homo sapiens) (UniProt P07949)"
  RESULT: "5.24%"
- COMPOUND_STRUCTURE_STRING: "CNC(=O)c1cccc(C#Cc2cncnc2Nc2ccc(OCc3cccc(F)c3)c(Cl)c2)c1"
  EXPERIMENTAL_SYSTEM: "Proto-oncogene tyrosine-protein kinase receptor Ret (Homo sapiens) (UniProt P07949)"
  RESULT: "1.18%"
- COMPOUND_STRUCTURE_STRING: "CC(C)COC(=O)c1ccc2c(c1)/C(=C/Nc1ccc(S(N)(=O)=O)cc1)C(=O)N2"
  EXPERIMENTAL_SYSTEM: "Proto-oncogene tyrosine-protein kinase receptor Ret (Homo sapiens) (UniProt P07949)"
  RESULT: "34%"

// each compound listed below needs its inhibition
1. CCn1c(-c2nonc2N)nc2c(C#CC(C)(C)O)nc(OC[C@H](N)c3ccccc3)cc21
2. Fc1ccc(-c2nn3ccccc3c2-c2ccncc2)cc1
3. CNC(=O)c1cc(-c2ccc(F)cc2)cc(-c2ccc(S(=O)(=O)N3CCCC3)cc2)c1N

## Output
1: 6.89%; 2: 1.59%; 3: 2.88%

// each compound listed below needs its inhibition
1. Nc1ncc(-c2cccc(S(N)(=O)=O)c2)c2scc(-c3ccc(F)c(Cl)c3)c12
2. FC(F)(F)c1cccc(-c2nn3ncccc3c2-c2ccnc(Nc3ccc4c(c3)OCCO4)n2)c1
3. CC(=O)Nc1cccc(C#Cc2cncnc2Nc2ccc(OCc3cccc(F)c3)c(Cl)c2)c1
4. COc1cc(/C=N/Nc2ncnc3[nH]ncc23)ccc1O
5. CCN(CC)S(=O)(=O)c1ccc(OC)c(Nc2ncc(-c3ccccc3)o2)c1
6. COc1ccc(-c2cc3c(N)ncnc3o2)cc1

## Output
1. 11.8%
2. 7.52%
3. 6.84%
4. 59%
5. 9.2%
6. -1.19%

// each compound listed below needs its inhibition
1. COC(=O)c1sc(-n2cnc3cc(OC)c(OC)cc32)cc1OCc1ccccc1C(F)(F)F
2. Fc1ccc(-c2nn3ncccc3c2-c2ccnc(Nc3ccc4c(c3)OCCO4)n2)cc1
3. COC(=O)Nc1nc2ccc(S(=O)(=O)c3ccc(NC(=O)Nc4cc(C(F)(F)F)ccc4F)cc3)cc2[nH]1
4. CN(C)CCOc1ccc(-c2nc(-c3ccncc3)c(-c3ccc4c(c3)CC/C4=N\O)[nH]2)cc1

## Output
24.8%
23.5%
5.15%
5.96%

// each compound listed below needs its inhibition
1. c1ccc(-c2nc3n(c2-c2ccc4c(c2)OCO4)CCC3)nc1
2. N#Cc1c(NC(=O)CN2CCOCC2)sc2c1CCCC2

## Output
1. 2.81%
2. 4.27%

// each compound listed below needs its inhibition
1. Cc1ccc2c(-c3ccnc(Nc4ccccc4)n3)c(-c3ccc(F)cc3)nn2n1
2. Nc1nc(-c2ccc(F)cc2)c(-c2ccc3ncccc3n2)s1
3. c1ccc(COc2ccc(Nc3ncnc4ccc(-c5ccco5)cc34)cc2)cc1
4. Fc1ccc(-c2cc(-c3c[nH]nc3-c3ccccn3)ccn2)cc1
5. COc1ccc(-c2oc3ncnc(N)c3c2-c2ccc(NC(=O)Nc3cc(C(F)(F)F)ccc3F)cc2)cc1

## Output
["14.8%", "8.56%", "1.71%", "5.13%", "89%"]

// each compound listed below needs its inhibition
1. CC(C)(CO)CNC(=O)c1ccc2c(c1)/C(=N/Nc1ccc(S(N)(=O)=O)cc1)C(=O)N2
2. Cc1ccc(O)cc1Nc1ccnc2cc(-c3ccccn3)ccc12

## Output
1: 9.94%; 2: 84.2%

// each compound listed below needs its inhibition
1. c1cc(-c2cnn3nc(N4CCOCC4)ccc23)nc(NC2CC2)n1
2. Nc1nc(-c2cccc(Cl)c2)c(-c2ccc3ncccc3n2)s1
3. COc1cc2ncn(-c3cc(OCc4ccccc4C(F)(F)F)c(C(=O)N(C)C)s3)c2cc1OC
4. COc1cc(Nc2nccc(Nc3ccc4c(C)n[nH]c4c3)n2)cc(OC)c1OC

## Output
5.62%
4.79%
3.06%
51.1%

----------
So I've got a bunch of compounds here, and I need their inhibition values.
- EXPERIMENTAL_SYSTEM: Tyrosine-protein kinase JAK1 (Homo sapiens)
- PARTICULARS: at 0.1 µM
- Description: GSK_PKIS: JAK1 mean inhibition at 0.1 uM [Nanosyn]
Give bare numbers, in %.

- COMPOUND_STRUCTURE_STRING: "COc1ccc2[nH]c3c4[nH]c5ccc(OC)cc5c4c4c(c3c2c1)C(=O)NC4=O"
  RECORDED_NUMBER: 0.96
- COMPOUND_STRUCTURE_STRING: "COc1cc(N2CCN(C(C)C)CC2)ccc1Nc1nc(Nc2ccc(F)cc2C(N)=O)c2cc[nH]c2n1"
  RECORDED_NUMBER: 3.68
- COMPOUND_STRUCTURE_STRING: "[O-][S+]1CCN(Cc2ccc(-c3ccc4ncnc(Nc5ccc(OCc6cccc(F)c6)c(Cl)c5)c4c3)o2)CC1"
  RECORDED_NUMBER: 6.24
- COMPOUND_STRUCTURE_STRING: "CCc1nn2ncccc2c1-c1ccnc(NC2CC2)n1"
  RECORDED_NUMBER: 1.35

Now examine the next entry.
## Input Tell me measured inhibition for Fc1ccc(-c2nn3ncccc3c2-c2ccnc(Nc3ccc4c(c3)OCCO4)n2)cc1 please.
## Output 3.02

----------
- EXPERIMENTAL_SYSTEM: Maternal embryonic leucine zipper kinase (Homo sapiens) (UniProt Q14680);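 further: reported figure is the mean percent inhibition of MELK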
- Sequence (Q14680 whole entry, looked up): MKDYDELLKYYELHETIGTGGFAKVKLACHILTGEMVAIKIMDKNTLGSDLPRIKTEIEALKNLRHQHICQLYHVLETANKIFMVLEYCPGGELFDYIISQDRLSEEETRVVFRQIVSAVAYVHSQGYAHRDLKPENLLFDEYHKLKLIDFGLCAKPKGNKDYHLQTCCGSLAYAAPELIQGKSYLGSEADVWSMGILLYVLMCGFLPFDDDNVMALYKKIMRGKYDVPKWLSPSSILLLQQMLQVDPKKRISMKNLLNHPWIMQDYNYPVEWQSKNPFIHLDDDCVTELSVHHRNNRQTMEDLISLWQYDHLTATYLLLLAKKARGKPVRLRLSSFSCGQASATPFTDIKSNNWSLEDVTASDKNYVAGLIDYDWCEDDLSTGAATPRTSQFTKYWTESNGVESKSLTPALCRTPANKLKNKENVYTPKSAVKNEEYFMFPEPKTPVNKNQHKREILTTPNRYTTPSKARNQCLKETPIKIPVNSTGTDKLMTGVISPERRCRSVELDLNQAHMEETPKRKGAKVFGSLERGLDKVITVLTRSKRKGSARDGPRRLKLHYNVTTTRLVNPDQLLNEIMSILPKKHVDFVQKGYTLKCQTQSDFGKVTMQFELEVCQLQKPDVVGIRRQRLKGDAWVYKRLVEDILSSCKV
- PARTICULARS: at 0.1 µM
So I've got a bunch of compounds here, and I need their inhibition values.
Numbers only, in %.

Some entries whose results are on file:
- COMPOUND: "COC(=O)c1sc(-n2cnc3cc(OC)c(OC)cc32)cc1OCc1ccccc1C(F)(F)F"
  inhibition / %: 4.31
- COMPOUND: "Fc1ccc(-c2nn3ncccc3c2-c2ccnc(Nc3ccc4c(c3)OCCO4)n2)cc1"
  inhibition / %: 3.62
- COMPOUND: "CCCN(CCS(C)(=O)=O)Cc1ccc(-c2ccc3ncnc(Nc4ccc(OCc5cccc(F)c5)c(Cl)c4)c3c2)o1"
  inhibition / %: 3.57

// each compound listed below needs its inhibition
1. COC(=O)Nc1nc2ccc(S(=O)(=O)c3ccc(NC(=O)Nc4cc(C(F)(F)F)ccc4F)cc3)cc2[nH]1
2. COc1cccc(-n2ncc3c(N/N=C/c4ccc(F)cc4)ncnc32)c1
3. CC1=C(C(=O)Nc2cc(Cl)c3[nH]ncc3c2)C(c2ccc(C(F)(F)F)cc2)CC(=O)N1 (stereo not given)
4. Fc1cccc(COc2ccc(Nc3ncnc4sc(-c5ccco5)cc34)cc2Cl)c1
5. NC(=O)c1sc(-n2cnc3ccc(C(F)(F)F)cc32)cc1OCc1ccccc1Br

## Output
[1.64, 2.6, 5.47, 5.07, 2.87]

// each compound listed below needs its inhibition
1. CCn1c(-c2nonc2N)nc2c(C#CC(C)(C)O)nc(OC[C@H](N)c3ccccc3)cc21
2. CCN1CCC(CC(=O)Nc2n[nH]c3nnc(-c4cccc(F)c4F)cc23)CC1
3. O=C(Nc1n[nH]c2cc(-c3ccc(F)cc3)ccc12)C1CC1
4. COc1cc2ncn(-c3cc(OCc4ccccc4C(F)(F)F)c(C(=O)N(C)C)s3)c2cc1OC
5. CC(=O)Nc1cccc(C#Cc2cncnc2Nc2ccc(OCc3cccc(F)c3)c(Cl)c2)c1

## Output
[17.7, 3.71, 4.84, 2.15, 1.32]

// each compound listed below needs its inhibition
1. COc1ccc(-c2cc3c(N)ncnc3o2)cc1
2. CC(C)COC(=O)c1ccc2c(c1)/C(=C/Nc1ccc(S(N)(=O)=O)cc1)C(=O)N2

## Output
1. -3.33
2. 50.1

// data source = ChEMBL document CHEMBL1961873
